Target: JAK2 (Homo sapiens, UniProt O60674)
Sequence (O60674 whole entry): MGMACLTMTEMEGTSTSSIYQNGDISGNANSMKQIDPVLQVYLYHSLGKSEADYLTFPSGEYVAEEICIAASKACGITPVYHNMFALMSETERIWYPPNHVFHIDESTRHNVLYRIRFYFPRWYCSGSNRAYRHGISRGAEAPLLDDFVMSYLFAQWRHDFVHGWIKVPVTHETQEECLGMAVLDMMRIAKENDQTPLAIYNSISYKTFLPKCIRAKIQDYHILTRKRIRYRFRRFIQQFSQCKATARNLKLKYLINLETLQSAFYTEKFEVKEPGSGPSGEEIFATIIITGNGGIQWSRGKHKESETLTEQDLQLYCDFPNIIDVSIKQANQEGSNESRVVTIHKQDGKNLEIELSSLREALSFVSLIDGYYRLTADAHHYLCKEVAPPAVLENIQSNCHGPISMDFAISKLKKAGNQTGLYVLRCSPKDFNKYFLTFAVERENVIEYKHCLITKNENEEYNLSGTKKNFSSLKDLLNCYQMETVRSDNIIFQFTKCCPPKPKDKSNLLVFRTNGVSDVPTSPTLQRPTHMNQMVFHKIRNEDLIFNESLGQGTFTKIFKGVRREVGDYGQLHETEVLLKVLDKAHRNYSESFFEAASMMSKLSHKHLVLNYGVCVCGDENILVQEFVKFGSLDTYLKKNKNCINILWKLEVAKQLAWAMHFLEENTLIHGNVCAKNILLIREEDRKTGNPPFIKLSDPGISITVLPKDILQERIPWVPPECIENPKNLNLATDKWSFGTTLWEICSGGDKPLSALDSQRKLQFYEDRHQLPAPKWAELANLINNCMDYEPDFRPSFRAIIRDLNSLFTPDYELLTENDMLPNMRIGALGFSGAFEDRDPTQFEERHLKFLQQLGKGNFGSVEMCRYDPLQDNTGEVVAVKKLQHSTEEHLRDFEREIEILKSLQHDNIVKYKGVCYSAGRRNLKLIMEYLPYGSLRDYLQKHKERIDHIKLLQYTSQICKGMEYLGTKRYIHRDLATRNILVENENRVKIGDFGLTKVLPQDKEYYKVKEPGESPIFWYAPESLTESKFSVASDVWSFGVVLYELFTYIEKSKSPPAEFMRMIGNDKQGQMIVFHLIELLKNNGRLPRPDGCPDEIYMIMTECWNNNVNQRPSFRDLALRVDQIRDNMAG
Experiment: JAK2 Inhibition Assay
Type: biochemical
Conditions: JAK-2 enzyme, 15 μM poly(Glu)4Tyr, 12 μM ATP

# smiles notation, Ki
rows = [
    ("CC(C)[C@H](C(=O)NCC(F)(F)F)N(C)c1nc(-c2c[nH]c3ncncc23)ncc1F", "< 500 nM"),
    ("C[C@@H](Nc1ccnc(-c2c[nH]c3ncncc23)n1)C(=O)NCC(F)(F)F", "< 500 nM"),
    ("C[C@H](Nc1nc(-c2c[nH]c3ncncc23)ncc1F)c1ccc(F)cc1", "< 500 nM"),
    ("CC(C)[C@@](C)(Nc1ccnc(-c2c[nH]c3ncncc23)n1)C(=O)NCC(F)(F)F", "< 500 nM"),
    ("CCC(CC)(Nc1nc(-c2c[nH]c3ncncc23)ncc1F)C(=O)NCC(F)(F)F", "< 500 nM"),
    ("COCCNC(=O)c1cc(N[C@@H](C)C(=O)NCC(F)(F)F)nc(-c2c[nH]c3ncncc23)n1", "500 to 5000 nM"),
    ("C[C@H](Nc1ccnc(-c2c[nH]c3ncncc23)n1)C(=O)NCC(F)(F)F", "< 500 nM"),
    ("COC[C@H](Nc1ccnc(-c2c[nH]c3ncncc23)n1)C(=O)NCC(F)(F)F", "> 5000 nM"),
    ("CC(C)(Nc1nc(-c2c[nH]c3ncncc23)ncc1F)C(=O)NCC(F)F", "< 500 nM"),
    ("CC(C)[C@H](C(=O)NCC(F)(F)F)N(C)c1ccnc(-c2c[nH]c3ncncc23)n1", "< 500 nM"),
    ("Fc1cnc(-c2c[nH]c3ncncc23)nc1N1CCCC1", "500 to 5000 nM"),
    ("C[C@H](Nc1nc(-c2c[nH]c3ncncc23)ccc1[N+](=O)[O-])C(=O)NCC(F)(F)F", "500 to 5000 nM"),
    ("C[C@@H](Nc1nc(-c2c[nH]c3ncncc23)ncc1F)c1ccc(F)cc1", "< 500 nM"),
    ("O=C(NCC(F)(F)F)C1(Nc2ncnc(-c3c[nH]c4ncncc34)n2)CCCC1", "< 500 nM"),
    ("C[C@@H](Nc1nc(-c2c[nH]c3ncncc23)ncc1F)C(=O)NCC(F)(F)F", "< 500 nM"),
    ("CC(C)[C@@H](Nc1ccnc(-c2c[nH]c3ncncc23)n1)C(=O)NCC(F)(F)F", "< 500 nM"),
    ("CC[C@H](Nc1nc(-c2c[nH]c3ncncc23)ncc1F)C(=O)NCC(F)(F)F", "500 to 5000 nM"),
]

---

Values of Ki reported for JAK2 (Homo sapiens) appear below.

# molecule, Ki
data = [
    ("CC[C@@](C)(Nc1nc(-c2c[nH]c3ncncc23)ncc1F)C(=O)NCC(F)(F)F [Compound 81]", "< 500 nM"),
    ("C[C@H](Nc1cc(C(=O)N2CCCC2)nc(-c2c[nH]c3ncncc23)n1)C(=O)NCC(F)(F)F [Compound 9]", "500 to 5000 nM"),
    ("C[C@@H](Nc1nc(-c2c[nH]c3ncncc23)nc2ccccc12)C(=O)NCC(F)(F)F [Compound 38]", "< 500 nM"),
    ("C[C@H](Nc1ccnc(-c2c[nH]c3ncncc23)n1)c1ccc(F)cc1 [Compound 84]", "< 500 nM"),
    ("O=C(NCC(F)(F)F)[C@H](CO)Nc1ccnc(-c2c[nH]c3ncncc23)n1 [Compound 51]", "> 5000 nM"),
    ("COC[C@H](Nc1nc(-c2c[nH]c3ncncc23)ncc1F)C(=O)NCC(F)(F)F [Compound 42]", "500 to 5000 nM"),
    ("COC[C@@H]1CCCN1c1nc(-c2c[nH]c3ncncc23)ncc1F [Compound 23]", "500 to 5000 nM"),
    ("CC(C)(C)OC(=O)N1CC=C(c2cccc(-c3c[nH]c4ncncc34)n2)CC1 [Compound 28]", "500 to 5000 nM"),
    ("O=C(NCC(F)(F)F)C1(Nc2ccnc(-c3c[nH]c4ncncc34)n2)CCOC1 (stereo not drawn) [Compound 101]", "< 500 nM"),
    ("C[C@H](Nc1cccc(-c2c[nH]c3ncncc23)n1)C(=O)NCC(F)(F)F [Compound 4]", "< 500 nM"),
    ("C[C@H](Nc1nc(-c2c[nH]c3ncncc23)ncc1F)C(=O)NCC(F)(F)F [Compound 6]", "< 500 nM"),
    ("O=C(CCNc1ccnc(-c2c[nH]c3ncncc23)n1)NCC(F)(F)F [Compound 82]", "< 500 nM"),
    ("CC[C@@H](Nc1ncnc(-c2c[nH]c3ncncc23)n1)C(=O)NCC(F)(F)F [Compound 91]", "< 500 nM"),
    ("C[C@H](Nc1cc(-c2nnn[nH]2)cc(-c2c[nH]c3ncncc23)n1)C(=O)NCC(F)(F)F [Compound 20]", "500 to 5000 nM"),
    ("CC(C)(Nc1nc(-c2c[nH]c3ncncc23)nc2ccccc12)C(=O)NCC(F)(F)F [Compound 105]", "< 500 nM"),
]
